Target: human μ opioid receptor (OPRM1) (Homo sapiens)
Assay: cell-based
Type: cell-based
observation-type: log10 of EC50 (log10 of the value in nM)
All values: log10 EC50 [nM].

Some solved cases for reference:
In [3]: df
Out[3]:
                                   compound  reported_result
0  c1ccc(CCCN2CC3CCC(C2)N3c2cccc(-c3ncco3)c2)cc1 [Compound 20]             2.51
1  NC(=O)c1cc(N2C3CCC2CN(CCCc2ccccc2)C3)ccc1O [Compound 16]             0.60
2  O=[N+]([O-])c1cccc(N2C3CCC2CN(CCCc2ccccc2)C3)c1 [Compound 10]             1.00
3  OC1(c2cccc(N3C4CCC3CN(CCCc3ccccc3)C4)c2)COC1 [Compound 5]             1.80
4  CC(C)(O)c1cccc(N2C3CCC2CN(CCCc2ccccc2)C3)c1 [Compound 4]             2.40

Quick one: give me log10 of EC50 for each item below, same order please.
1. FC(F)c1cccc(N2C3CCC2CN(CCCc2ccccc2)C3)c1 [Compound 9]
2. NC(=O)c1cc(N2C3CCC2CN(CCCc2ccccc2)C3)ccc1F [Compound 18]
3. NC(=O)c1cccc(N2C3CCC2CN(CCCc2ccccc2)C3)c1F [Compound 19]

Given back:
[1.11, 1.00, 0.40]

Please give log10 of EC50 for each item listed below.
1. Oc1ccc(N2C3CCC2CN(CCCc2ccccc2)C3)cc1 [Compound 1]
2. Nc1cccc(N2C3CCC2CN(CCCc2ccccc2)C3)c1 [Compound 11]
3. Oc1cc(Cl)cc(N2C3CCC2CN(CCCc2ccccc2)C3)c1 [Compound 6]
4. NC(=O)c1ccccc1N1C2CCC1CN(CCCc1ccccc1)C2 [Compound 14]
5. O=S(=O)(Nc1cccc(N2C3CCC2CN(CCCc2ccccc2)C3)c1)C1CC1 [Compound 12]

Given back:
2.40
-0.60
1.30
0.51
-0.30

# return log10 of EC50 for each item in the list
1. Oc1cc(F)cc(N2C3CCC2CN(CCCc2ccccc2)C3)c1 [Compound 8]
2. OCc1cccc(N2C3CCC2CN(CCCc2ccccc2)C3)c1 [Compound 3]

Given back:
1: -0.10; 2: 1.30

====

Assay: in vitro
Conditions: human, microsomes
Exercise: state measured half-life for each of the compounds provided.
Your answer should be a number followed by the unit of measure.

Solved cases (4 shown):
                                   compound  reported_result
0  O=S(=O)(Nc1cccc(N2C3CCC2CN(CCCc2ccccc2)C3)c1)C1CC1 [Compound 12]         35.6 min
1  NC(=O)c1cccc(N2C3CCC2CN(CCCc2ccccc2)C3)c1 [Compound 13]         92.7 min
2  Oc1cc(F)cc(N2C3CCC2CN(CCCc2ccccc2)C3)c1 [Compound 8]         26.6 min
3  NC(=O)c1cc(N2C3CCC2CN(CCCc2ccccc2)C3)ccc1O [Compound 16]           13 min

--- query ---
Asked: Would you kindly share the measured half-life for Nc1cccc(N2C3CCC2CN(CCCc2ccccc2)C3)c1 [Compound 11] ?
Given back: 36.5 min

====

Target: human μ opioid receptor (OPRM1) (Homo sapiens, UniProt P35372)
Sequence (P35372 whole entry): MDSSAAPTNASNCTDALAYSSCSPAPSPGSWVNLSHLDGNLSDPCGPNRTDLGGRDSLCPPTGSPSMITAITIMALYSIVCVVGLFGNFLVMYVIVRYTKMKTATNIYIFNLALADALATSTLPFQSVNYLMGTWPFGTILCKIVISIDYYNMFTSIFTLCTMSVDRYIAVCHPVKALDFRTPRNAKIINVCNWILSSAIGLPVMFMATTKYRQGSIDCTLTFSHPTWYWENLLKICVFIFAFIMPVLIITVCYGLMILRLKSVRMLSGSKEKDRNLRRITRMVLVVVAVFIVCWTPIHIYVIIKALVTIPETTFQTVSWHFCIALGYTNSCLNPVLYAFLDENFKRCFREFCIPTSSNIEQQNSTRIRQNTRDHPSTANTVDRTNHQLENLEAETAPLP
Experiment: cell-based
Format: cell-based
Details: read-out: MOR cAMP EC50
observation-type: EC50 (nM)
Answers are plain numbers, in nM.

Asked: What EC50 value was documented for this compound, NC(=O)c1cccc(N2C3CCC2CN(CCCc2ccccc2)C3)c1 [Compound 13] ?
Given back: 0.25
